- Test system: A498 renal
- assay.protocol: NCI tumour cell line growth inhibition, 48 h
measure.name: TGI (µM)
Express your answer in µM, writing the number without its unit.

Reference set, count: 2
| compound | measure.name | measure.unit | result.value |
| --- | --- | --- | --- |
| CCCCCCCCCC1CC(=O)Oc2cccc(O)c21 (centres undefined) | TGI | µM | 42 |
| O=C(CCl)Nc1ccc2c(Nc3cc(O)ccc3Cl)ncnc2c1 | TGI | µM | 11.1 |

Now for another entry.
Query block: Lab request: please report TGI under test system A498 renal for `CCN(CC)CCCNc1ccc2ncn3c4ccc(O)cc4c(=O)c1c23`
Result block: 17.8

* * *

- System: LOX IMVI melanoma
- assay.protocol: NCI tumour cell line growth inhibition, 48 h; in the data active = GI50 below about 0.43 µM; inactive = the rest
Valid outcomes are listed here; reply with one: active, inactive

Consider the following illustrative entries.
| compound | label.class |
| --- | --- |
| O=C(N/N=C\c1cc(Cl)ccc1O)c1ccncc1 | inactive |
| CO/N=C/C=C\C(=O)N/C=C/C[C@H]1/C=C/[C@H](O)/C=C\C=C\c2cccc(O)c2C(=O)O1 | active |

Query block: Call for entry CC12CC[C@@H]3c4cc5c(cc4CC[C@H]3[C@@H]1CCC2O)oc1cc(F)ccc15 (some centres undefined) :
Result block: inactive

Query block: What call does the record list for `CCCCCC/C=C\CCCCCCCCCc1cc(O)cc(OC)c1O` ?
Result block: active

* * *

- Tested on: LOX IMVI melanoma
- assay.protocol: NCI tumour cell line growth inhibition, 48 h
measure.name: TGI

Example cases with answers are listed next.
| molecule | measure.name | result.value |
| --- | --- | --- |
| COC(=O)c1ccccc1C1CN=NC12Cc1c(C)cccc1C2=O (stereo unspecified) | TGI | > 100 µM |
| C=CCNC(=O)NNC(O)(C(=O)OCC)C(F)(F)F (stereo unspecified) | TGI | > 100 µM |
| NCc1ccc(O)c(O)c1 | TGI | > 100 µM |
| CC(O)C1(CNc2cc(Cl)nc(N)n2)CCCC1 (stereo unspecified) | TGI | > 100 µM |
| c1ccc(C[n+]2ccc3c(c2)CCCC3)cc1 | TGI | > 100 µM |

Query block: Suppose we examine the molecule COC1CC(OC)C2OC(c3ccccc3)OCC2O1 (stereo unspecified) ; what TGI value has been reported?
Result block: > 100 µM

* * *

TGI values by entry
- Tested on: SNB-75 CNS
- assay.protocol: NCI tumour cell line growth inhibition, 48 h

Query block: // returns reported TGI for input `Cc1ccc(C(=O)CCl)o1`
Result block: > 10 µM

Query block: Fill blank: measured TGI of the molecule `CCN(C(=O)N[C@@H](Cc1ccccc1)C(=O)N[C@@H](CC(C)C)C(=O)NC)c1ccccc1` is ____.
Result block: > 100 µM

Query block: Give the measured TGI of `COc1ccc2c(c1)-c1c(c3cc(OC)ccc3n1CCN1CCOCC1)CC2` .
Result block: > 100 µM

Query block: Field request: TGI | item: `Cc1ccc(S(=O)(=O)N2CCCN(S(=O)(=O)c3ccc(C)cc3)CC2)cc1`
Result block: > 100 µM

Query block: # input molecule: COC(=O)/C(C#N)=C1\CCC(Nc2cccc(C(F)(F)F)c2)N1C (stereo unspecified) ; wanted: its TGI
Result block: > 100 µM

Query block: Quick one: TGI for COC(=O)[C@H](Cc1c[nH]c2ccccc12)NC(=O)OCC1OC(n2cc(C)c(=O)[nH]c2=O)CC1N=[N+]=[N-] (stereo partly specified) ?
Result block: > 100 µM

Where do these numbers come from? They come from PubChem BioAssay (NCI).
